Molecular target: Env of HIV-1 strain X1254_c3 (HIV-1)
Assay: cell-based or functional assay
Parameter measured: neutralization IC50
Report the figure along with its unit, number first.

Binder	neutralization IC50
γ59κ61 (antibody, V domains shown) VH: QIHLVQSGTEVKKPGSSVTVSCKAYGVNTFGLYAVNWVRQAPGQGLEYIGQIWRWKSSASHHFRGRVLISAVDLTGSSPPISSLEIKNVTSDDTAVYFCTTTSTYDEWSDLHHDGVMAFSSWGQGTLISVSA VL: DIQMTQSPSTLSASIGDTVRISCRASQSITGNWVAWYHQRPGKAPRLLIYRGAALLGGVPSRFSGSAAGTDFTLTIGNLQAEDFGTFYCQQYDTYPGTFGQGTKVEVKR	4.01 mg/L

Let's switch to this binder now.
Challenge: Record request: neutralization IC50 value, item 8ANC195 IgG (antibody, V domains shown) VH: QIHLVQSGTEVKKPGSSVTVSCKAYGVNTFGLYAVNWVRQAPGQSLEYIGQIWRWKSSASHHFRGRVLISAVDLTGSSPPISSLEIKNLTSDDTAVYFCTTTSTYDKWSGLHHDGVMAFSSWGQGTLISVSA VL: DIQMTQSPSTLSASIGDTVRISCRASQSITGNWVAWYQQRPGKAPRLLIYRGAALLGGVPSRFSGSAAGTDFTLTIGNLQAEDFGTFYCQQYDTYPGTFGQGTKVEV
Response given: 1.52 mg/L
